Listed here: items and their measured %Inh.
# System: CSNK1A1
# SETTINGS: concentration: 1 μM, replicates: in singlicate; n = 1
Write the number in % without appending the unit.

// solved cases for %Inh follow
1. C[C@@H]1CCCCN1c1cc(-c2ccc3c(N)n[nH]c3c2)nc(N)n1 = 0
2. COc1cc(Nc2nccc(N3CCC(NC(=O)Nc4cc(C)ccc4C)C3)n2)cc(OC)c1OC (stereo not shown) = 3
3. CC(C)(C)c1ccc(C(=O)Nc2cn3cc(-c4cccnc4)ccc3n2)cc1 = 41

Req: Give %Inh for this entry on CSNK1A1: O=C(Nc1n[nH]c2cc(-c3cccc(F)c3F)ccc12)C1CC1
Resp: 16

Req: State measured %Inh of the molecule COc1cc2nccc(Nc3ccc(NC(=O)c4ccc(C)cc4)c(O)c3)c2cc1OC.Cl with CSNK1A1.
Resp: 0

Req: Tell me %Inh of CN(C)CCN(C)C(=O)c1cc(-c2ccncc2)c(-c2ccc(Cl)c(O)c2)o1.Cl.Cl when tested on CSNK1A1.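 Note: KINOMEscan kinase panel screen.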
Resp: 62
